B1: library; numbered along this chain (parent)
chain: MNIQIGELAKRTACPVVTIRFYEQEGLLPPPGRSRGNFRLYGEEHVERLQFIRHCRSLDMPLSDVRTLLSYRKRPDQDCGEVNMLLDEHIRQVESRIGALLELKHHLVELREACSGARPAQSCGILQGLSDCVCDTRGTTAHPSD

Variants of: B1
procedure.text: sfGFP reporter fluorescence (15 h) (µM FITC); higher = higher leak
study.conditions: library round: Round 0; ligand: none
metric: sfGFP reporter fluorescence

mutation=E109R endpoint_result=0.0654
mutation=S115A endpoint_result=0.0599
mutation=E109W endpoint_result=0.061
mutation=E112M endpoint_result=0.0621
mutation=E43V endpoint_result=0.0605
mutation=I125P endpoint_result=0.0559
mutation=P30V endpoint_result=0.0619
mutation=D135F endpoint_result=0.0718
mutation=G6F endpoint_result=0.0592
